- Test system: HELA cell line
- ASSAY EXPLANATION: SRB cytotoxicity assay, HELA cervical cancer cell line
- CONDITIONS USED: Homo sapiens, HeLa, 72 h, read-out: Cytotoxicity IC50 value, HELA cell line, SRB, 72 h, 0.1-200 μg/mL range, mean ± SD, value in brackets
PROPERTY: IC50

>  <GIVEN SMILES>
CCCCc1ccc(Nc2c(F)cc3c(=O)c(C(=O)O)cn(C4CC4)c3c2[N+](=O)[O-])cc1

>  <IC50>
498 µg/mL

$$$$
>  <GIVEN SMILES>
CCc1ccc(Nc2c(F)cc3c(=O)c(C(=O)O)cn(C4CC4)c3c2N)cc1

>  <IC50>
51.7 µg/mL

$$$$
>  <GIVEN SMILES>
COc1ccc(Nc2c(F)cc3c(=O)c(C(=O)O)cn(C4CC4)c3c2N)c(OC)c1

>  <IC50>
120 µg/mL

$$$$
>  <GIVEN SMILES>
CCc1ccc(-n2nnc3c4c(cc(F)c32)c(=O)c(C(=O)O)cn4C2CC2)cc1

>  <IC50>
447 µg/mL

$$$$

State its IC50: "COc1ccc(Nc2c(F)cc3c(=O)c(C(=O)O)cn(C4CC4)c3c2[N+](=O)[O-])cc1"
81.7 µg/mL

Tell us which IC50 value is on record for "Nc1c(NC2CCCCC2)c(F)cc2c(=O)c(C(=O)O)cn(C3CC3)c12"
45 µg/mL

Tell us which IC50 value is on record for "COc1cccc(-n2nnc3c4c(cc(F)c32)c(=O)c(C(=O)O)cn4C2CC2)c1"
26.3 µg/mL

Please list IC50 recorded for the molecule "COc1ccc(Nc2c(F)cc3c(=O)c(C(=O)O)cn(C4CC4)c3c2N)cc1"
97.8 µg/mL

Return value of IC50 for input "O=C(O)c1cn(C2CC2)c2c([N+](=O)[O-])c(Cl)c(F)cc2c1=O" , no commentary.
7.02 µg/mL

For the molecule "CCCCCCc1ccc(-n2nnc3c4c(cc(F)c32)c(=O)c(C(=O)O)cn4C2CC2)cc1" , give its reported IC50.
1.61 µg/mL

---

- System: HELA cell line
- ASSAY EXPLANATION: SRB cytotoxicity assay, HELA cervical cancer cell line
- CONDITIONS USED: Homo sapiens, HeLa, 72 h, read-out: Cytotoxicity IC50 value, HELA cell line, SRB, 72 h, 0.1-200 μg/mL range, mean ± SD; NI = lack of cytotoxicity in range
pIC50: −log10 of the molar value.
Label True when pIC50 is at or above 4; anything below gets False.

The following compounds have reported results that may help.
>  <COMPOUND>
COc1ccc(-n2nnc3c4c(cc(F)c32)c(=O)c(C(=O)O)cn4C2CC2)c(OC)c1 [5g]

>  <SYSTEM UNDER TEST>
HELA cell line

>  <CATEGORY LABEL>
False

$$$$
>  <COMPOUND>
COc1ccccc1-n1nnc2c3c(cc(F)c21)c(=O)c(C(=O)O)cn3C1CC1 [5a]

>  <SYSTEM UNDER TEST>
HELA cell line

>  <CATEGORY LABEL>
False

$$$$
>  <COMPOUND>
CCCCc1ccc(Nc2c(F)cc3c(=O)c(C(=O)O)cn(C4CC4)c3c2[N+](=O)[O-])cc1 [3e]

>  <SYSTEM UNDER TEST>
HELA cell line

>  <CATEGORY LABEL>
False

$$$$
>  <COMPOUND>
CCCCCCc1ccc(Nc2c(F)cc3c(=O)c(C(=O)O)cn(C4CC4)c3c2N)cc1 [4f]

>  <SYSTEM UNDER TEST>
HELA cell line

>  <CATEGORY LABEL>
True

$$$$
>  <COMPOUND>
COc1cccc(-n2nnc3c4c(cc(F)c32)c(=O)c(C(=O)O)cn4C2CC2)c1 [5b]

>  <SYSTEM UNDER TEST>
HELA cell line

>  <CATEGORY LABEL>
True

$$$$

Is it the case that COc1ccc(Nc2c(F)cc3c(=O)c(C(=O)O)cn(C4CC4)c3c2N)c(OC)c1 [4g] has pIC50 reaching or exceeding 4?
False

Record CCc1ccc(Nc2c(F)cc3c(=O)c(C(=O)O)cn(C4CC4)c3c2N)cc1 [4d] ; criterion: pIC50 no lower than 4. Met?
False
